// each record: one item and its IC50 for JAK2 (Homo sapiens (Human))
attribute measured: IC50

>>> df
                                 smiles_code  readout_value
 0  CCN1CCN(Cc2cc(NC(=O)N3CCc4ccc(-c5ccc6nc(NC(=O)C7CC7)sc6n5)cc43)cc(C(F)(F)F)c2)CC1     > 10000 nM
 1  CCN1CCN(Cc2cc(C(=O)Nc3cccc(-c4ccc5nc(NC(=O)C6CC6)sc5n4)c3)cc(C(F)(F)F)c2)CC1         550 nM
 2  O=C(Nc1nc2ccc(-c3ccc4c(c3)N(C(=O)Nc3ccc(F)cc3F)CC4)nc2s1)C1CC1     > 10000 nM
 3  CC(=O)Nc1nc2ccc(-c3cc(C(=O)Nc4ccc(F)cc4F)ccc3C)nc2s1     > 10000 nM
 4  CCN1CCN(Cc2cc(C(=O)N3Cc4ccc(-c5ccc6nc(NC(=O)C7CC7)sc6n5)cc4C3)cc(C(F)(F)F)c2)CC1     > 10000 nM
 5  CCN1CCN(Cc2cc(C(=O)Nc3ccc(C)c(-c4ccc5nc(NC(=O)C6CC6)sc5n4)c3)cc(C(F)(F)F)c2)CC1         639 nM
 6  CCN1CCN(Cc2cc(C(=O)N3CCc4ccc(-c5ccc6nc(NC(=O)C7CC7)sc6n5)cc43)cc(C(F)(F)F)c2)CC1     > 10000 nM
 7  CCN1CCN(Cc2cc(C(=O)Nc3ccc(C)c(Oc4ccc5nc(NC(=O)C6CC6)sc5n4)c3)cc(C(F)(F)F)c2)CC1         824 nM
 8  CCN1CCN(Cc2cc(NC(=O)N3Cc4ccc(-c5ccc6nc(NC(=O)C7CC7)sc6n5)cc4C3)cc(C(F)(F)F)c2)CC1     > 10000 nM
 9  CCN1CCN(C(=O)c2cc(NC(=O)c3ccc(C)c(-c4ccc5nc(NC(=O)C6CC6)sc5n4)c3)cc(C(F)(F)F)c2)CC1        1450 nM
10  CCN1CCN(Cc2cc(C(=O)Nc3ccc(C)c(-c4ccc5nc(NC(=O)C6CC6)sc5c4)c3)cc(C(F)(F)F)c2)CC1         881 nM
11  CCN1CCN(Cc2ccc(NC(=O)Nc3ccc(C)c(Oc4ccc5nc(NC(=O)C6CC6)sc5n4)c3)cc2C(F)(F)F)CC1     > 10000 nM
